Overview of reported pKd across a group of binders:
Biological target: T1, recombinant human ROR1 extracellular domain (human, UniProt Q01973 30-406)
T1 construct: biotinylated for the filter lifts; also called huROR1-ECD; human ROR1-ECD
T1 sequence (Q01973 30-406 limits assumed): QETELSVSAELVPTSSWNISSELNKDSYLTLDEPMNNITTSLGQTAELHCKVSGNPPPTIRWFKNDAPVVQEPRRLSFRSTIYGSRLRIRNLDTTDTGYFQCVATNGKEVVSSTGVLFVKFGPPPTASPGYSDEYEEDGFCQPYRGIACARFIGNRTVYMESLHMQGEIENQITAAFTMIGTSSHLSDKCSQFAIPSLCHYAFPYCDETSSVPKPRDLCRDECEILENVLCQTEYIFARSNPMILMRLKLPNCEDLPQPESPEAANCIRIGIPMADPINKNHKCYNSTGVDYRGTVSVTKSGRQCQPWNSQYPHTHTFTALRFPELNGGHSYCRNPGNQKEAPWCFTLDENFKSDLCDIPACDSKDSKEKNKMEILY
Assay: ELISA, soluble Fab on coated huROR1-ECD
pKd: −log10 of the molar value.
MEASUREMENT_NAME: pKd

binder="Ab1 Fab variant H2 G66N (Fab, V domains shown, Fab) VH: QVQLQESGPGLVKPSQTLSLTCTVSGYAFTAYNIHWVRQAPGQGLEWMGSFDPYDNGSSYNQKFKDRLTISKDTSKNQVVLTMTNMDPVDTATYYCARGWYYFDYWGHGTLVTVSS VL: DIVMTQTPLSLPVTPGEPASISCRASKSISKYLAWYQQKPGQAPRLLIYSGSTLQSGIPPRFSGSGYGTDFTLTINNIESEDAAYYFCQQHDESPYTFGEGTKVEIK" measurement_name=pKd number=8.66
binder="Ab1 Fab variant H2 Y70V (Fab, V domains shown, Fab) VH: QVQLQESGPGLVKPSQTLSLTCTVSGYAFTAYNIHWVRQAPGQGLEWMGSFDPYDGGSSVNQKFKDRLTISKDTSKNQVVLTMTNMDPVDTATYYCARGWYYFDYWGHGTLVTVSS VL: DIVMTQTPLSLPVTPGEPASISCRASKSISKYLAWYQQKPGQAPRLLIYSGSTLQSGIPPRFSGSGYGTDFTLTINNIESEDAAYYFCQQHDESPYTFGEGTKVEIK" measurement_name=pKd number=8.82
binder="Ab1 Fab variant H1 I41V (Fab, V domains shown) VH: QVQLQESGPGLVKPSQTLSLTCTVSGYAFTAYNVHWVRQAPGQGLEWMGSFDPYDGGSSYNQKFKDRLTISKDTSKNQVVLTMTNMDPVDTATYYCARGWYYFDYWGHGTLVTVSS VL: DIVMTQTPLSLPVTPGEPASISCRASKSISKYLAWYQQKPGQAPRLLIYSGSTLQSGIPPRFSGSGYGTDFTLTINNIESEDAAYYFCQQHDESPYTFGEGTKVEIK" measurement_name=pKd number=8.46
